Test system: HAB1
experimentSummary: Yeast two hybrid of pBD-PYR1 site saturation mutants with pACT-HAB1 on 10 μM ABA, β-galactosidase staining
Assay type: cell-based, Arabidopsis
Parameters: key: x: Mutations in PYR1 that disrupt ABA-induced binding to PYR1 to HAB1
condition: S. cerevisiae Y190, 10 μM ABA; dead = lack of visible staining in comparison to wild type control
Excerpt: To systematically identify mutations in PYR1 that disrupt its binding to HAB1, we utilized a collection of saturating mutations that contain all possible single amino acid substitutions in 24 conserved interface residues involved in binding HAB1, which was previously constructed for the purpose of engineering constitutively active ABA receptor variants (Mosquna et al., 2011). […]
measuredEndpoint: Mutations in PYR1 that disrupt ABA-induced binding to PYR1 to HAB1

molecule	valueObserved
H115Y: PYR1 mutant (protein, UniProt O49686 1-191, looked up, variant H115Y) Abscisic acid receptor PYR1: MPSELTPEERSELKNSIAEFHTYQLDPGSCSSLHAQRIHAPPELVWSIVRRFDKPQTYKHFIKSCSVEQNFEMRVGCTRDVIVISGLPANTSTERLDILDDERRVTGFSIIGGEYRLTNYKSVTTVHRFEKENRIWTVVLESYVVDMPEGNSEDDTRMFADTVVKLNLQKLATVAEAMARNSGDGSGSQVT	x
G86D: PYR1 mutant (protein, UniProt O49686 1-191, looked up, variant G86D) Abscisic acid receptor PYR1: MPSELTPEERSELKNSIAEFHTYQLDPGSCSSLHAQRIHAPPELVWSIVRRFDKPQTYKHFIKSCSVEQNFEMRVGCTRDVIVISDLPANTSTERLDILDDERRVTGFSIIGGEHRLTNYKSVTTVHRFEKENRIWTVVLESYVVDMPEGNSEDDTRMFADTVVKLNLQKLATVAEAMARNSGDGSGSQVT	x
S85Q: PYR1 mutant (protein, UniProt O49686 1-191, looked up, variant S85Q) Abscisic acid receptor PYR1: MPSELTPEERSELKNSIAEFHTYQLDPGSCSSLHAQRIHAPPELVWSIVRRFDKPQTYKHFIKSCSVEQNFEMRVGCTRDVIVIQGLPANTSTERLDILDDERRVTGFSIIGGEHRLTNYKSVTTVHRFEKENRIWTVVLESYVVDMPEGNSEDDTRMFADTVVKLNLQKLATVAEAMARNSGDGSGSQVT	x
